system_tested: TDP-43 (Homo sapiens, UniProt Q13148 1-414)
Sequence (Q13148 whole entry): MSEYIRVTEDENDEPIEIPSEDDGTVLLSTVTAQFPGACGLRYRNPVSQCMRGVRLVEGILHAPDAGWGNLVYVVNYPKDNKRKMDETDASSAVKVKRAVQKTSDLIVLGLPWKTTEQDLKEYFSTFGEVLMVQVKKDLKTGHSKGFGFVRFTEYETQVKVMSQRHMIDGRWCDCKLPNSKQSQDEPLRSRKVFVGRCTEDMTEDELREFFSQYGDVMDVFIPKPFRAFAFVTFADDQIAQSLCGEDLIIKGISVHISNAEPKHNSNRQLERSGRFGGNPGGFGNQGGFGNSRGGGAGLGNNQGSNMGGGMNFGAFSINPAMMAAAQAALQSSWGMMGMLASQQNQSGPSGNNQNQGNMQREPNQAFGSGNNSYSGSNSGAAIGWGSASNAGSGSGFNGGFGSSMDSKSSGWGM
procedure_details: RNA Bind-n-Seq with designed 260-mer pool; 25 mM Tris-HCl, 150 mM KCl, 3 mM MgCl2, BSA (printed 500 mg/mL), 20 units/mL SUPERase IN; pH not stated; 500 nM RNA pool, 1 h, 4 C; TDP-43 5, 50, 500 nM; high values mean tight binding
condition_info: protein: recombinant; tags: SBP (GST cleaved off with PreScission; pGEX-GST-SBP)
In all, about 9,900 sequences were measured (“r (bound/input frequency ratio)”: median about 0.7, highest 2% from about 6.5 on). This excerpt belongs to a sample that is enriched for the highest values.
measurement_kind: binding signal

1) ENSMUSG00000058297.78|Spock2 (ssRNA) RNA: GGGAGUUCUACAGUCCGACGAUCGCUUCGAUAUCCGCAUGCUACUCAGCCCAACACCUGGAAUCCCUGCCCUGCCUAAUCAGCCCUACCCCAUCCUGCCUUUCUUCCUUCCUCUUCUGAGGCCAGGGAGAGGGAGGGAGGGCAGGCAGCUGAAAGCUGAGCGUCCUCCCCAAAUUGGGCUGAUUUGAUAUGAAAGCCCCACCACGGUCUUGUGGUGAUGAGGCAGGACCUGUACACACAGCAAGGCUUACUAUCCGUCUCCUGACAUCCGAAGAGCUCGUCGCAGGUGUGUCUAAUGGCCCUUCUCUUGCGGUCGCACUAGUGUGGAAUUCUCGGGUGUCAAGG; 0.631 R (bound/input frequency ratio)
2) ENSMUSG00000061578.522|Ksr2 (ssRNA) RNA: GGGAGUUCUACAGUCCGACGAUCGCUUCGAUAUCCGCAUGCUAGGAGCUCUUGCCUAACACACACCAAGCCCCAAGUUCCAUCCCCAGUCCCACACAAACCAGAUAUGAUGGUGUGUGCCUAUGUCCCCCACACACGAGAGAGCUGGAGGCAGGAGGAUCAGAAGUUCAGGGCCAUCCUUAAUCAUACAGUGAGCUUGAGAGCAACCUGGGCUACAUGUGACCCUAAUAACUUUUGUAAAUUCAGCACACUUGGCACCUCACACUCCAUGUCCAUAUACUGCAUGUGCCACACACACACACACCUCUUGCGGUCGCACUAGUGUGGAAUUCUCGGGUGUCAAGG; 2.82 R (bound/input frequency ratio)
3) ENSMUSG00000058297.560|Spock2|93:97;225:231 (ssRNA) RNA: GGGAGUUCUACAGUCCGACGAUCGCUUCGAUAUCCGCAUGCUAACCUGGGGGUGCAAAAGGAGAUUCAAGACAUCCGUACCAAGUCAGGCAGAGCUACCCGCUUCUCAGCCCGUGUCCCACUUAAAACCGUCCGAACACAAAUCACUGAGCUUAGAGUUAAACAUUGUGGUCAAGUGCUUGGGUUCCGUCUGUAGAUUUAAGUGCUGACGUUGUAUCUCUCAGUAAUUUUAGAUGUCUUUUAAAAAAUCUGAACAAGUGUUAGACCCCACACACCGUUGGUGGGCACUCAAGCAUCCCGUGGGCUCUUGCGGUCGCACUAGUGUGGAAUUCUCGGGUGUCAAGG; 0.189 R (bound/input frequency ratio)

Query :: Return reported binding signal; argument: ENSMUSG00000061578.1302|Ksr2 (ssRNA) RNA: GGGAGUUCUACAGUCCGACGAUCGCUUCGAUAUCCGCAUGCUAGGGAUUGGCUGUAGUUAAUUAAAAGCACCUGUCUCUGUCAUCUCUGCACCCAACUGAAUCUCCCACCCUCAAGUGUACCUCUCAGGAUAUCCCCAGGCACACGAAGAUGGAAUGGAAAGCCAGUGGGUAUCUCCCACCCACUUAGAUGCUGAUGGCCUGGGACUAUAAACAGGGACAGUUGGGUCUCCUAAGGAAUAGCUUCCAGGUCCAGGAUGCUGGCAUCUCCCAGAGAGAACUCCAUCCCCUGACCACCAAGGCCUCUCUUGCGGUCGCACUAGUGUGGAAUUCUCGGGUGUCAAGG
Result :: 0.444 R (bound/input frequency ratio)

Query :: Return reported binding signal; argument: ENSMUSG00000090935.680|Synj2bp|248:252 (ssRNA) RNA: GGGAGUUCUACAGUCCGACGAUCGCUUCGAUAUCCGCAUGCUAUUGAGAUUCACCACUGUCAGGAGCUCUCUCUCUCUGCUUAGAAUCAUCCAGACAGCGGGCUGGUCAGCCCACAUUAAAUAAGAACAUGUGGGACUAGAAUUCAGUCAACAAUGACAUGUUUCAUCAGGUGGUUAAAAUGUACAGAUUCUGUUGGAAAUGUUCCAUGGUAUUUCAAUAGCCAGAAUGAAGAACUGGGCUAAGUCCAGAGCUCUGCUCUCUGAGCAUCUGCCCCAGAUACAGAGGCAGACAUACAAGUGGAACUCUUGCGGUCGCACUAGUGUGGAAUUCUCGGGUGUCAAGG
Result :: 0.197 R (bound/input frequency ratio)

Query :: Return reported binding signal; argument: ENSMUSG00000061578.1360|Ksr2|254:258 (ssRNA) RNA: GGGAGUUCUACAGUCCGACGAUCGCUUCGAUAUCCGCAUGCUAAGGCAAGCAACCUUGCCAAGGCAGGCCAGACAGGACAGCCCAGCUUCCCACUCCAGACAUGUUGUUCUUACAUCUCUGACCCAGUGAUCUUUCUAGGGGUCUGUCACAUGUCCCAACAGGUGGACAGCUCUCCAAGUCACCAACCUGAGGAAAAUAUCCCUCCUUGUAAAAAGGCUUUCUCUUUGUAAAUGAUUCUGUUGCCUUUUUCUAAACACAAAGUAUAUAUACCUAUAAAUGCUAUAUAUAUUAUAUAACACAAUCUCUUGCGGUCGCACUAGUGUGGAAUUCUCGGGUGUCAAGG
Result :: 0.201 R (bound/input frequency ratio)

Query :: Return reported binding signal; argument: ENSMUSG00000090935.77|Synj2bp|54:58 (ssRNA) RNA: GGGAGUUCUACAGUCCGACGAUCGCUUCGAUAUCCGCAUGCUACUUUGUCAGCAUAGGCAGGAGUCCUUUAGGAUUUCUGCCUAUCAGUAAAAGAACAUACUAACCCAAGUUCUACCUUCAGUGGAUUAAAGUUUCAUUAAGUGAAAAUGGAAAGAAAGUAGAAUUACUUGGUAAGAGGCCAAAUGAGGAUACAGAGGCUGAAGAAGAUUGAAAGGAGCUAGUGUAAACAAACAAACAAACAAACAAACAAAAAACCAAACCCCAAAACAAAAACAAAAACAAAACAAAAUUGGAGAAAGCAGCUCUUGCGGUCGCACUAGUGUGGAAUUCUCGGGUGUCAAGG
Result :: 0.449 R (bound/input frequency ratio)

Where do these numbers come from? They come from paper PMC12864922.
